# Test system: Bacillus subtilis
# Assay Info: Antimicrobial activity against Bacillus subtilis ATCC 6633 after 24 hrs by agar well diffusion method
# Type: functional
Reported Property: diameter of the inhibition zone (DIZ)

[
  {
    "Compound": "C/C(=N\\N=C1\\NC(=O)CS1)c1nc(-c2ccccc2)[nH]c1C",
    "Endpoint Result": "16 mm"
  },
  {
    "Compound": "C/C(=N\\N=C1\\N=C(c2ccccc2)CS1)c1nc(-c2ccccc2)[nH]c1C",
    "Endpoint Result": "16 mm"
  },
  {
    "Compound": "C/C(=N\\N=C1\\NC(=O)/C(=C/c2cn(-c3ccccc3)nc2-c2cccs2)S1)c1nc(-c2ccccc2)[nH]c1C",
    "Endpoint Result": "<=4 mm"
  },
  {
    "Compound": "C/C(=N\\NC(=O)/C(C#N)=C\\c1ccc(F)cc1)c1nc(-c2ccccc2)[nH]c1C",
    "Endpoint Result": "16 mm"
  },
  {
    "Compound": "C/C(=N\\N=C1\\N=C(c2cc3ccccc3o2)CS1)c1nc(-c2ccccc2)[nH]c1C",
    "Endpoint Result": "<=4 mm"
  },
  {
    "Compound": "C/C(=N\\NC(N)=S)c1nc(-c2ccccc2)[nH]c1C",
    "Endpoint Result": "16 mm"
  },
  {
    "Compound": "CC1=NC(=N/N=C(\\C)c2nc(-c3ccccc3)[nH]c2C)/S/C1=N\\Nc1ccccc1",
    "Endpoint Result": "<=4 mm"
  },
  {
    "Compound": "C/C(=N\\NC(=O)CC#N)c1nc(-c2ccccc2)[nH]c1C",
    "Endpoint Result": "<=4 mm"
  },
  {
    "Compound": "C/C(=N\\NC(=O)/C(C#N)=C\\c1cn(-c2ccccc2)nc1-c1cc2ccccc2o1)c1nc(-c2ccccc2)[nH]c1C",
    "Endpoint Result": "<=4 mm"
  },
  {
    "Compound": "C/C(=N\\N=C1\\NC(=O)/C(=C/c2ccc(F)cc2)S1)c1nc(-c2ccccc2)[nH]c1C",
    "Endpoint Result": "<=4 mm"
  },
  {
    "Compound": "CC(=O)N1CCN(c2ccc(OCC3COC(Cn4ccnc4)(c4ccc(Cl)cc4Cl)O3)cc2)CC1 (stereo not drawn)",
    "Endpoint Result": "<=4 mm"
  },
  {
    "Compound": "C/C(=N/NC(=O)c1cc2ccc(O)cc2oc1=N)c1nc(-c2ccccc2)[nH]c1C",
    "Endpoint Result": "<=4 mm"
  },
  {
    "Compound": "C/C(=N\\NC(=O)/C(C#N)=C\\c1cn(-c2ccccc2)nc1-c1cccs1)c1nc(-c2ccccc2)[nH]c1C",
    "Endpoint Result": "<=4 mm"
  },
  {
    "Compound": "CC1=NC(=N/N=C(\\C)c2nc(-c3ccccc3)[nH]c2C)/S/C1=N\\Nc1ccc(Cl)cc1",
    "Endpoint Result": "<=4 mm"
  },
  {
    "Compound": "C/C(=N\\N=C1\\N=C(c2cc3ccccc3oc2=O)CS1)c1nc(-c2ccccc2)[nH]c1C",
    "Endpoint Result": "<=4 mm"
  },
  {
    "Compound": "C/C(=N\\N=C1\\NC(=O)/C(=C/c2cn(-c3ccccc3)nc2-c2cc3ccccc3o2)S1)c1nc(-c2ccccc2)[nH]c1C",
    "Endpoint Result": "<=4 mm"
  },
  {
    "Compound": "C/C(=N\\N=C1\\N=C2N=c3ccccc3=NC2S1)c1nc(-c2ccccc2)[nH]c1C (stereo not drawn)",
    "Endpoint Result": "<=4 mm"
  }
]

* * *

# Tested on: Staphylococcus aureus
# Assay Info: Antimicrobial activity against Staphylococcus aureus ATCC 29213 after 24 hrs by agar well diffusion method
# Assay type: functional
Reported Property: diameter of the inhibition zone (DIZ)

[
  {
    "Smiles Text": "C/C(=N\\N=C1\\NC(=O)/C(=C/c2cn(-c3ccccc3)nc2-c2cc3ccccc3o2)S1)c1nc(-c2ccccc2)[nH]c1C",
    "Target Or Test System": "Staphylococcus aureus",
    "Endpoint Result": "<=4 mm"
  },
  {
    "Smiles Text": "O=C(O)c1cn(C2CC2)c2cc(N3CCNCC3)c(F)cc2c1=O",
    "Target Or Test System": "Staphylococcus aureus",
    "Endpoint Result": "16 mm"
  },
  {
    "Smiles Text": "C/C(=N\\NC(=O)/C(C#N)=C\\c1cn(-c2ccccc2)nc1-c1cc2ccccc2o1)c1nc(-c2ccccc2)[nH]c1C",
    "Target Or Test System": "Staphylococcus aureus",
    "Endpoint Result": "<=4 mm"
  },
  {
    "Smiles Text": "C/C(=N\\N=C1\\N=C(c2cc3ccccc3oc2=O)CS1)c1nc(-c2ccccc2)[nH]c1C",
    "Target Or Test System": "Staphylococcus aureus",
    "Endpoint Result": "<=4 mm"
  },
  {
    "Smiles Text": "C/C(=N\\NC(=O)/C(C#N)=C\\c1cn(-c2ccccc2)nc1-c1cccs1)c1nc(-c2ccccc2)[nH]c1C",
    "Target Or Test System": "Staphylococcus aureus",
    "Endpoint Result": "<=4 mm"
  },
  {
    "Smiles Text": "C/C(=N\\N=C1\\NC(=O)CS1)c1nc(-c2ccccc2)[nH]c1C",
    "Target Or Test System": "Staphylococcus aureus",
    "Endpoint Result": "16 mm"
  },
  {
    "Smiles Text": "CC1=NC(=N/N=C(\\C)c2nc(-c3ccccc3)[nH]c2C)/S/C1=N\\Nc1ccccc1",
    "Target Or Test System": "Staphylococcus aureus",
    "Endpoint Result": "<=4 mm"
  },
  {
    "Smiles Text": "C/C(=N\\N=C1\\NC(=O)/C(=C/c2ccc(F)cc2)S1)c1nc(-c2ccccc2)[nH]c1C",
    "Target Or Test System": "Staphylococcus aureus",
    "Endpoint Result": "<=4 mm"
  },
  {
    "Smiles Text": "C/C(=N\\NC(=O)CC#N)c1nc(-c2ccccc2)[nH]c1C",
    "Target Or Test System": "Staphylococcus aureus",
    "Endpoint Result": "<=4 mm"
  }
]

* * *

# Assay Info: Antioxidant activity assessed as ABTS radical scavenging activity at 2 mM
# Format: functional
Reported Property: inhibition (%)

[
  {
    "Compound": "C/C(=N\\N=C1\\NC(=O)/C(=C/c2cn(-c3ccccc3)nc2-c2cc3ccccc3o2)S1)c1nc(-c2ccccc2)[nH]c1C",
    "Endpoint Result": 35.9
  },
  {
    "Compound": "C/C(=N\\N=C1\\N=C2N=c3ccccc3=NC2S1)c1nc(-c2ccccc2)[nH]c1C (stereo unspecified)",
    "Endpoint Result": 37.4
  },
  {
    "Compound": "C/C(=N\\NC(=O)/C(C#N)=C\\c1cn(-c2ccccc2)nc1-c1cccs1)c1nc(-c2ccccc2)[nH]c1C",
    "Endpoint Result": 34.6
  },
  {
    "Compound": "C/C(=N\\NC(=O)CC#N)c1nc(-c2ccccc2)[nH]c1C",
    "Endpoint Result": 48.2
  },
  {
    "Compound": "CC1=NC(=N/N=C(\\C)c2nc(-c3ccccc3)[nH]c2C)/S/C1=N\\Nc1ccc(Cl)cc1",
    "Endpoint Result": 40.7
  },
  {
    "Compound": "C/C(=N/NC(=O)c1cc2ccc(O)cc2oc1=N)c1nc(-c2ccccc2)[nH]c1C",
    "Endpoint Result": 4.56
  },
  {
    "Compound": "C/C(=N\\NC(N)=S)c1nc(-c2ccccc2)[nH]c1C",
    "Endpoint Result": 60.2
  },
  {
    "Compound": "C/C(=N\\N=C1\\N=C(c2cc3ccccc3oc2=O)CS1)c1nc(-c2ccccc2)[nH]c1C",
    "Endpoint Result": 61.6
  },
  {
    "Compound": "O=C1O[C@H]([C@@H](O)CO)C(O)=C1O",
    "Endpoint Result": 88.6
  },
  {
    "Compound": "C/C(=N\\NC(=O)/C(C#N)=C\\c1cn(-c2ccccc2)nc1-c1cc2ccccc2o1)c1nc(-c2ccccc2)[nH]c1C",
    "Endpoint Result": 34.6
  },
  {
    "Compound": "C/C(=N\\NC(=O)/C(C#N)=C\\c1ccc(F)cc1)c1nc(-c2ccccc2)[nH]c1C",
    "Endpoint Result": 68.6
  },
  {
    "Compound": "C/C(=N\\N=C1\\NC(=O)/C(=C/c2cn(-c3ccccc3)nc2-c2cccs2)S1)c1nc(-c2ccccc2)[nH]c1C",
    "Endpoint Result": 76.2
  },
  {
    "Compound": "CC1=NC(=N/N=C(\\C)c2nc(-c3ccccc3)[nH]c2C)/S/C1=N\\Nc1ccccc1",
    "Endpoint Result": 44.4
  },
  {
    "Compound": "C/C(=N\\N=C1\\N=C(c2cc3ccccc3o2)CS1)c1nc(-c2ccccc2)[nH]c1C",
    "Endpoint Result": 39.9
  },
  {
    "Compound": "C/C(=N\\N=C1\\NC(=O)/C(=C/c2ccc(F)cc2)S1)c1nc(-c2ccccc2)[nH]c1C",
    "Endpoint Result": 79.2
  },
  {
    "Compound": "C/C(=N\\N=C1\\N=C(c2ccccc2)CS1)c1nc(-c2ccccc2)[nH]c1C",
    "Endpoint Result": 79.3
  }
]
